Biological target: p38a activated, mitogen-activated protein kinase-activated protein kinase 2 (MAPKAP-K2 or MK2) enzyme (Homo sapiens (Human), UniProt P49137)
Sequence (P49137 whole entry): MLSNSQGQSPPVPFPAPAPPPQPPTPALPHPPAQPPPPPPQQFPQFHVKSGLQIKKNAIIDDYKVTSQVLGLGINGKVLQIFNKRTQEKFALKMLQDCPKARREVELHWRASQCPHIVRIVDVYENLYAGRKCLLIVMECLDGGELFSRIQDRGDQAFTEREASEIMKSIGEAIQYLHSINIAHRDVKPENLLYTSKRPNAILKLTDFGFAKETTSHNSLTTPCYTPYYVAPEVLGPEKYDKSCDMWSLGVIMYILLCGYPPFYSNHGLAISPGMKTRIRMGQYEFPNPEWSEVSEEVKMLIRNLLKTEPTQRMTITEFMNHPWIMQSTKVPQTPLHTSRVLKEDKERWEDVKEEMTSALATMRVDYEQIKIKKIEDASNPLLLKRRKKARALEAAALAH
Assay: MK2 Omnia continuous-read kinase assay for compound potency
Details: [MK-2]=0.4 nM, [ATP]=10 μM, [ST3-Sox]=10 μM; room temperature
From the text: Mitogen-Activated Protein Kinase-Activated Protein Kinase 2 Omnia® Assay for Compound Potency Assessment: The protocol below describes a continuous-read kinase assay optimized to measure potency of compounds against p38a activated, mitogen-activated protein kinase-activated protein kinase 2 (MAPKAP-K2 or MK2) enzyme. […]
Experimental Readout: IC50 (nM)
Express the result in nM but write the number alone.

Quick note, IC50 for `C#Cc1nc(CN2CCN(C)CC2)cc(-c2ccc3c(ccc4sc5c(c43)NC[C@@H](C)NC5=O)n2)n1` landed at 26

# compound `C[C@@H]1CNc2c(sc3ccc4nc(-c5ccnc(C#CC(C)(C)N)c5)ccc4c23)C(=O)N1` ; its IC50 = 15

Looking up `C=Cc1cc(-c2ccc3c(ccc4sc5c(c43)NC[C@@H](C)NC5=O)n2)c(C)nn1` , I see its IC50 listed as 9

Entry `C=Cc1nccc(-c2ccc3c(ccc4sc5c(c43)NC[C@@H](C)NC5=O)n2)c1F` — recorded IC50 = 78

The reported value for `C#Cc1cc(-c2ccc3c(ccc4sc5c(c43)NC[C@@H](C)NC5=O)n2)cc(N2CCC(F)(F)CC2)n1` in terms of IC50 is 1000

response.value for `C[C@@H]1CNc2c(sc3ccc4nc(-c5nc(Cl)c(C(F)(F)F)cc5F)ccc4c23)C(=O)N1` (field: IC50) = 752

For `C[C@@H]1CNc2c(sc3ccc4nc(-c5cc(CN6CCN(C)CC6)nc(Cl)n5)ccc4c23)C(=O)N1` the compound record lists IC50 as 283

---

Biological target: p38a activated, mitogen-activated protein kinase-activated protein kinase 2 (MAPKAP-K2 or MK2) enzyme (Homo sapiens (Human))
Test: MK2 Omnia continuous-read kinase assay for compound potency
Conditions: [MK-2]=0.4 nM, [ATP]=10 μM, [ST3-Sox]=10 μM; room temperature
Assignment: determine reported IC50 for the given compounds.
Lab book: enter the figure in nM, no units written.

The reported IC50 of the compound C#Cc1cc(-c2ccc3c(ccc4sc5c(c43)NC[C@@H](C)NC5=O)n2)nc(C#CC(C)(C)N)n1 [Example I-67] was 38

The compound C=Cc1cc(-c2ccc3c(ccc4sc5c(c43)NC[C@@H](C)NC5=O)n2)nc(COC)n1 [Example I-13] showed IC50 equal to 1

What the record says about C#Cc1cc(-c2ccc3c(ccc4sc5c(c43)NC[C@@H](C)NC5=O)n2)cc(CN2C[C@@H](C)O[C@@H](C)C2)n1 [Example I-186] : IC50 is 26

Record summary for C=Cc1nc(C)n(-c2ccc3c(ccc4sc5c(c43)NC[C@@H](C)NC5=O)n2)n1 [Example I-261] : reported IC50 = 1000

---

Target: p38a activated, mitogen-activated protein kinase-activated protein kinase 2 (MAPKAP-K2 or MK2) enzyme (Homo sapiens (Human), UniProt P49137)
Assay: MK2 Omnia continuous-read kinase assay for compound potency
Type: biochemical
Settings: [MK-2]=0.4 nM, [ATP]=10 μM, [ST3-Sox]=10 μM; room temperature
Experimental Readout: IC50 (nM)
Unit nM implied. Number only.

# IC50 of `C#Cc1cc(-c2ccc3c(ccc4sc5c(c43)NC[C@@H](C)NC5=O)n2)cc(CN2CCN(C)CC2)n1` = 34

Recorded result, `C=Cc1cc(-c2ccc3c(ccc4sc5c(c43)NC[C@@H](C)NC5=O)n2)c(CN2CCC(OC)CC2)cn1` , IC50: 95

Lookup result for `C=C(CN(C)C)c1cc(-c2ccc3c(ccc4sc5c(c43)NC[C@@H](C)NC5=O)n2)ccn1` ; measured IC50: 6

GET /value?item= `C=Cc1cc(-c2ccc3c(ccc4sc5c(c43)NC[C@@H](C)NC5=O)n2)cc(CN2CCN(C)CC2)n1` &field=IC50 returns 2

Record `C=Cc1cc(-c2ccc3c(ccc4sc5c(c43)NC[C@@H](C)NC5=O)n2)c(F)c(CN2CCOCC2)n1` . Reported IC50: 106

Quick note, IC50 for `C=Cc1cc(-c2ccc3c(ccc4sc5c(c43)NC[C@@H](C)NC5=O)n2)c(OC(F)F)cn1` landed at 360

// IC50 value for `C=C(F)c1cc(-c2ccc3c(ccc4sc5c(c43)NC[C@@H](C)NC5=O)n2)ccn1` : 122

The measured IC50 associated with `C#Cc1nc(-c2ccc3c(ccc4sc5c(c43)NC[C@@H](C)NC5=O)n2)cc(N2CCN(C)CC2)n1` reads 58

IC50 recorded for this molecule, `C=Cc1cc(-c2ccc3c(ccc4sc5c(c43)NC[C@@H](C)NC5=O)n2)nc(CO)n1` , is 1

// field: IC50; key: `C=Cc1cc(-c2ccc3c(ccc4sc5c(c43)NC[C@@H](C)NC5=O)n2)cc(N2CCCCC2)n1` ; value = 140

The molecule identified as `C#Cc1cc(-c2ccc3c(ccc4sc5c(c43)NC[C@@H](C)NC5=O)n2)c(OCCN2CCCC2)nn1` registered its IC50 at 45

# IC50 (molecule: `C=Cc1cc(-c2ccc3c(ccc4sc5c(c43)NC[C@@H](C)NC5=O)n2)c(OC(F)(F)F)cn1` ) is 74

IC50 in this record for `C=Cc1ncc(CO)c(-c2ccc3c(ccc4sc5c(c43)NC[C@@H](C)NC5=O)n2)n1` : 13

For `C#Cc1cc(-c2ccc3c(ccc4sc5c(c43)NC[C@@H](C)NC5=O)n2)cc(N2CCN(C)CC2)n1` the molecule record lists IC50 as 42

Please fill in: IC50 reported for `C=Cc1cc(-c2ccc3c(ccc4sc5c(c43)NC[C@@H](C)NC5=O)n2)cc(N2CCC(COC)CC2)n1` = 107
